The reported numbers originate from the supplement of paper PMC10567573.

B1: ADAMTSL2 (parent)
chain: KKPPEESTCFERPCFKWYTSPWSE

- Variants of: B1
- RUN_DESCRIPTION: protein stability index of a GFP-peptide fusion (GPS, HEK-293T) (PSI 1-6); higher = more stable;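 also: lentivirally expressed fusions sorted by FACS into six bins by GFP to DsRed ratio, PSI derived from sequencing read proportions per bin multiplied by bin number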
- RECORDED_CONDITIONS: c terminus: a fixed tail appended
MEASURED_PROPERTY: protein stability index
Answer as a number with no unit attached.

Solved cases below.
P3I: 1.93
W17E: 3.19
P21I: 2.38
F15R: 2
K16Y: 1.72
K1A: 2.38

### Prompt Using the record for R12T , report its protein stability index.
### Response 2.09
